Hi there, I'd appreciate the recorded composite z-score for every entry that follows.
- Assay notes: anti-His antibody binders, primary screen, artefact control for SMM control protein annotation, biochemical, small-molecule microarray, 635 nm fluorescence (AID 1128);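 note: score merges feature fluorescence with signal-to-noise for each printed compound spot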
- Condition info: anti-His Alexa647 antibody binding, higher = more signal

Input line: Note composite z-score for the compound shown: O=C(OCCF)C1=CCC(c2cccc(Cl)c2)O1 (configuration not stated)
Output line: 0.1

Input line: Note composite z-score for the compound shown: "COCCOC(=O)N1C(=O)[C@@]2(c3cc(C#CCC(C(=O)OC)C(=O)OC)ccc31)[C@H](C(=O)N1CCN(c3ncccn3)CC1)[C@H]1C(=O)O[C@H](c3ccccc3)[C@H](c3ccccc3)N1[C@@H]2c1ccc(OCCO)cc1"
Output line: 1.61

Input line: Note composite z-score for the compound shown: "O=C1c2ccccc2[C@@]2(Cc3ccccc3N(Cc3ccccc3)C2=O)[C@H](c2ccc(CO)cc2)N1C1CCCCC1"
Output line: 0.386

Input line: Note composite z-score for the compound shown: "C=CCNC(=O)[C@@H]1[C@H]2C(=O)O[C@H](c3ccccc3)[C@H](c3ccccc3)N2[C@H](c2ccc(O)cc2)[C@@]12C(=O)N(C(=O)OCCOC)c1ccccc12"
Output line: 1.92

Input line: Note composite z-score for the compound shown: "CN(C)CCCCCCNC(=O)[C@H]1C[C@H]2C(=O)N[C@@H](CCCCN)C(=O)N2[C@H]1c1ccc(O)cc1"
Output line: 3.12

Input line: Note composite z-score for the compound shown: "COCCOC(=O)N1C(=O)[C@@]2(c3cc(C#CC4=CCCCC4)ccc31)[C@H](C(=O)N1CCc3cc(OC)c(OC)cc3C1)[C@H]1C(=O)O[C@H](c3ccccc3)[C@H](c3ccccc3)N1[C@@H]2c1ccccc1OCCO"
Output line: -0.13

Input line: Note composite z-score for the compound shown: "CN(C)C(=O)[C@@]1(CCC(=O)OC(C)(C)C)N=C(c2ccc(OCCCO)cc2)O[C@H]1c1ccccc1"
Output line: 3.44
